- Tested on: 648629-189-R-J1-PDC spheroids with HUVEC/MSC, viability;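 also: spheroids exposed to agents for seven days before reading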
- method_summary: Anticancer human tumor 648629-189-R-J1-PDC patient-derived bladder carcinoma cell line growth inhibition [PI3K]
- test_parameters: second compound 3.16 µM; first compound 3.16 µM; hits give low values
Please note: viability, T/C exactly at 70% is Not satisfied. Only values below 70% get Satisfied.

Check if viability, T/C falls below 70% for C=CC(=O)N1CCN(c2nc(=O)n(-c3c(C)ccnc3C(C)C)c3nc(-c4c(O)cccc4F)c(F)cc23)C(C)C1 (stereo unspecified) + CC(Nc1ncnc2nc[nH]c12)c1cc2cccc(Cl)c2c(=O)n1-c1ccccc1 .
Not satisfied

Check if viability, T/C falls below 70% for C=CC(=O)N1CCN(c2nc(=O)n(-c3c(C)ccnc3C(C)C)c3nc(-c4c(O)cccc4F)c(F)cc23)C(C)C1 (stereo unspecified) + Cc1nc(NC(=O)N2CCCC2C(N)=O)sc1-c1ccnc(C(C)(C)C(F)(F)F)c1 .
Not satisfied

Check if viability, T/C falls below 70% for C[C@@H](NC(=O)c1ncnc(N)c1Cl)c1ncc(C(=O)Nc2cc(C(F)(F)F)c(Cl)cn2)s1 + Cc1nc(NC(=O)N2CCCC2C(N)=O)sc1-c1ccnc(C(C)(C)C(F)(F)F)c1 .
Satisfied

Check if viability, T/C falls below 70% for CC1(C)CCC(Nc2ncc(C(F)(F)F)c(-c3c[nH]c4c(P(C)(C)=O)c(C#N)ccc34)n2)CN1 (stereo unspecified) + Cc1nc(NC(=O)N2CCCC2C(N)=O)sc1-c1ccnc(C(C)(C)C(F)(F)F)c1 .
Satisfied

Check if viability, T/C falls below 70% for CC1(C)CCC(CN2CCN(c3ccc(C(=O)NS(=O)(=O)c4ccc(NCC5CCOCC5)c([N+](=O)[O-])c4)c(Oc4cnc5[nH]ccc5c4)c3)CC2)=C(c2ccc(Cl)cc2)C1 + Cc1nc(NC(=O)N2CCCC2C(N)=O)sc1-c1ccnc(C(C)(C)C(F)(F)F)c1 .
Satisfied

Check if viability, T/C falls below 70% for Cn1nccc1Nc1nccc(-c2ccn(C(CO)c3ccc(Cl)c(F)c3)c(=O)c2)n1 (stereo unspecified) + Cc1nc(NC(=O)N2CCCC2C(N)=O)sc1-c1ccnc(C(C)(C)C(F)(F)F)c1 .
Satisfied
